experiment: label from the status in PepcDB records
Property Measured: protein production

Q: Can you share its protein production? I mean this sequence: GIHYTSEKDIRQIVRPTIADYWEGKIDEATTYEDLEKLKQELREYRVLDPACGSGNFLYVAYQELKRLERVLLNKIYERRKRFQGEVLQQEEIGIVTPLQFFGMDTNPFAVQLARVTMMIARKIAIDKFGLTEPALPLDSLDQNIVCQDALFNDWPKADAIIGNPPFLGGSRVRLELGDKYVERIFEKFSDVKDKVDFCVYWFRLAHENLNKTGRAGLVGTNSISQGFSRRASLEYIVNNGGIIHDAISTQVWSGQANVHVSLVNWQYLKPPEYVLDHEIVKNINSSLKSETDVSNAVKLK
Result: failed

Q: Can you share its protein production? I mean this sequence: MCLAIPSVVIDIFEEDGEKYALAEYKGVKQKAKLALIEGVEIGDYVLIHTGYALEKMSEDEAKLSLDAWEELFDVLDEM
Result: failed

====

assay: label from the status in PepcDB records
Property Measured: protein production

Q: Can you share its protein production? I mean this sequence: QAQITGRPEWIWLALGTALMGLGTLYFLVKGMGVSDPDAKKFYAITTLVPAIAFTMYLSMLLGYGLTMVPFGGEQNPIYWARYADWLFTTPLLLLDLALLVDADQGTILALVGADGIMIGTGLVGALTKVYSYRFVWWAISTAAMLYILYVLFFGFTSKAESMRPEVASTFKVLRNVTVVLWSAYPVVWLIGSEGAGIVPLNIETLLFMVLDVSAKVGFGLILLRSRAIFGEAEAPEPSAGDGAAATSD
Result: failed

Q: Can you share its protein production? I mean this sequence: EDPGDAQVVFARLDAYIRRHLQSEIEVAALAEQAHMSTRSLYALFERQLGESPRQYIRRLRLERIRACLEDPGCRVRNLTELALDFGFAHLGRFAEQYRRQFGELPSETLRRRA
Result: failed

Q: Can you share its protein production? I mean this sequence: MASYFDEHDCEPSDPEQETRTNMLLELARSLFNRMDFEDLGLVVDWDHHLPPPAAKTVVENLPRTVIRGSQAELKCPVCLLEFEEEETAIEMPCHHLFHSSCILPWLSKTNSCPLCRYELPTDDDTYEEHRRDKARKQQQQHRLENLHGAMYT
Result: failed

====

experiment: label from the status in PepcDB records
Property Measured: protein production

// below: answered sequences
Q: Can you share its protein production? I mean this sequence: MRDFLVRYFPTFMLTVLLGCFSASLLLSLAGTTYWRAMAPPQRDEYLLFGLLVLIPLLVLGNLLIVRGISRAVWLVAGYFVACLLGVVPMFQYHPHQGVYLFGVLLPLLGLLLLNSKRHREMRERLLQIRQQRQRFKQQRKRG
Result: failed

Q: Can you share its protein production? I mean this sequence: MLVSEAVLPLLFYGILTPVYQVILRGKISNVKGFYLAWITAPFLVGYFFYSTLVEVFLLLIFNIIGYIIVLKNKYKYIFPLLLFSAVIIQIFYILTTLHTIHG
Result: failed

Q: Can you share its protein production? I mean this sequence: MYAIAEDTLPARVLKELLLYRRRYPEHRQSASEADEIRRIEQVQLPRIAAFIEAGEPIEFVLPAFPAKSPNPGKVLDSRPDMAERLSLSFLNHLCQRIQLFYAPGAKITVCSDGRVFGDLVRIGDAHISAYQDALRLMIEEIGATHIGVFNLEDVRAFEAQRDNHEQLRQLLIGGYAEPLESIRETLLASEEGLLLYRAITRFLYEDGLTPDYQGSKTALQRDAKERAYGVIQRSWAWGALLADQFPRAIRLSIHPQPADSLKFGIHMMPTRDDWLTPWHGVAVNTEDRFVLMKRSEVLELGGELVQINGQPSHYRLPARAARRAAVALEHHHHHH
Result: failed

Q: Can you share its protein production? I mean this sequence: MSPASGSVISCAKVLDDYFYGSSNTVEALLLNSFETPALLFTTETSNLLTDIREDRSRHIEKISPYLLLTAGILSGFNPCLLAVMAFLASVNLTQKGRRKEMLKITLGFSTGIFTMHMLAGLSILGTVNFLPELRSYFSEIAVVMTALLGFWHIYDAYWLRKHAKTTFRTPQPLKDFMSRMDEKNLLLLSFLAGGMFSLVKAPCVGAVYLSLLSLLAMKTDIVRGIEYIWIFNLGLLLPVVLLGLLLAFGLSPKTVTEFRERKRVGIRLITGSILISLALMMQFRIL
Result: failed

Q: Can you share its protein production? I mean this sequence: MSKGKKIFAIIFGIILVLFLAVVGMGAKLYWDVSKSMDKTYETVERSKKSQVNLNNKEPFSVLLLGIDTGDDGRVEQGRSDTTIVATVNPRDKQTTLVSLARDTYVDIPGQGKQDKLNHAYAFGGASLAMDTVENYLNIPINHYVSINMAGLKELVNAVGGIEVNNNLTFSQDGYDFTIGKISLDGEQALSYSRMRYEDPNGDYGRQERQRKVIEGIVQKVLSLNSVSNYQEILTAVSDNMKTDLSFDDMKKIALDYRSAFGKVKQDQLQGTGFMQDGVSYQRVDEQELTRVQQELKNQLNTK
Result: failed

***
Q: Can you share its protein production? I mean this sequence: MNFSTSFWQGFRALVPLWLGTVPFALAYAVTARAAGLSVGDTCLMSLTTFAGASQFAAAGLFGAHAGGLSIVLTTFLLNARHLLYGLSLARELRLTLPQRVVAAQFLTDEAYGVAVVSGARLPGGLTFAFLLGAELSLYLSWNVSTLLGALAGSVLPPPEQLGVGVVFPLAFLGLLVPLVVDRLSLLVALAAGLGGWALSRVLPGGLVILLAGVGGALLGAALLTRREQRAGVRA
Result: failed

Hello, the source for this data is a protein production outcome set (Wang et al. 2014), in case you need it.
